- Test system: Coxsackievirus B4
- Assay Name: Antiviral activity against Coxsackievirus B4 infected in human HeLa cells assessed as inhibition of virus-induced cytopathicity after 3 days
- Assay type: functional, organism-based
- Conditions: Enterovirus B, 72 h
Property: EC50; scope: individual compounds

// worked examples, EC50 included
[[record]]
compound = "O=C1CSC(N2N=C(c3ccc(Cl)cc3)CC2c2ccc(OCc3ccccc3)cc2)=N1 (centres undefined)"
value_type = "EC50"
recorded_result = "> 20 µg/mL"

[[record]]
compound = "NC(=S)N1N=C(c2ccc(Br)cc2)CC1c1ccc(OCc2ccccc2)cc1 (centres undefined)"
value_type = "EC50"
recorded_result = "> 20 µg/mL"


Moving on to the next compound.
query: Endpoint output: EC50 of NC(=S)N1N=C(c2ccc(Cl)cc2)CC1c1ccc(OCc2ccccc2)cc1 (centres undefined) . Value?
result: > 100 µg/mL

----------
Property: selectivity ratio; scope: individual molecules
- Assay Name: Selectivity index, ratio of MCC for african green monkey Vero cells to EC50 for Reovirus 1
- Type: toxicity, cell-based
- Conditions: read-out: Selectivity Index
Write the value as a bare number.

[[record]]
molecule = "CC(=O)N1N=C(c2ccc(C)cc2)CC1c1ccc(OCc2ccccc2)cc1 (configuration not stated)"
recorded_result = 5


Moving on to the next molecule.
query: Endpoint output: selectivity ratio of CC(=O)N1N=C(c2ccc(Cl)cc2)CC1c1ccc(OCc2ccccc2)cc1 (configuration not stated) . Value?
result: 5

----------
- Test system: Vesicular stomatitis virus
- Assay Name: Antiviral activity against Vesicular stomatitis virus infected in human HEL cells assessed as inhibition of virus-induced cytopathicity after 3 days
- Format: functional, organism-based
- Conditions: 72 h
Value Type: EC50

query: Endpoint output: EC50 of CC(=O)N1N=C(c2ccc(C)cc2)CC1c1ccc(OCc2ccccc2)cc1 (stereo not given) . Value?
result: > 4 µg/mL

query: Endpoint output: EC50 of Nc1nc2c(ncn2COC(CO)CO)c(=O)[nH]1 . Value?
result: > 100 µg/mL

----------
- Assay Name: Selectivity index, ratio of MCC for human HEL cells to EC50 for sVesicular stomatitis virus
- Type: toxicity, cell-based
- Conditions: read-out: Selectivity Index
Value Type: selectivity ratio
Write the value as a bare number.

[[record]]
molecule = "Cc1ccc(C2=NN(C3=NC(=O)CS3)C(c3ccc(OCc4ccccc4)cc3)C2)cc1 (configuration not stated)"
recorded_result = 5


Moving on to the next molecule.
query: Endpoint output: selectivity ratio of CC(=O)N1N=C(c2ccc(C)cc2)CC1c1ccc(OCc2ccccc2)cc1 (configuration not stated) . Value?
result: 5

----------
- Assay Name: Cytotoxicity against human HeLa cells assessed as minimum cytotoxic concentration required to cause microscopically detectable alteration in normal cell morphology
- Format: cell-based
Property: MCC; scope: individual compounds
Record the value in µg/mL, omitting the unit from your answer.

// worked examples, MCC included
[[record]]
compound = "Cc1ccc(C2=NN(C3=NC(=O)CS3)C(c3ccc(OCc4ccccc4)cc3)C2)cc1 (configuration not stated)"
recorded_result = 100

[[record]]
compound = "O=C1CSC(N2N=C(c3ccccc3)CC2c2ccc(OCc3ccccc3)cc2)=N1 (configuration not stated)"
recorded_result = 100

[[record]]
compound = "Clc1ccc(-c2csc(N3N=C(c4ccccc4)CC3c3ccc(OCc4ccccc4)cc3)n2)cc1 (configuration not stated)"
recorded_result = 100


query: Endpoint output: MCC of Cc1ccc(C2=NN(C(N)=S)C(c3ccc(OCc4ccccc4)cc3)C2)cc1 (configuration not stated) . Value?
result: 4

query: Endpoint output: MCC of CC(=O)N1N=C(c2ccc(C)cc2)CC1c1ccc(OCc2ccccc2)cc1 (configuration not stated) . Value?
result: 20

query: Endpoint output: MCC of Cc1ccc(C2=NN(c3nc(-c4ccc(Cl)cc4)cs3)C(c3ccc(OCc4ccccc4)cc3)C2)cc1 (configuration not stated) . Value?
result: 100

query: Endpoint output: MCC of O=C1CSC(N2N=C(c3ccc(Cl)cc3)CC2c2ccc(OCc3ccccc3)cc2)=N1 (configuration not stated) . Value?
result: 100

query: Endpoint output: MCC of CC(=O)N1N=C(c2ccc(Br)cc2)CC1c1ccc(OCc2ccccc2)cc1 (configuration not stated) . Value?
result: 100

query: Endpoint output: MCC of NC(=S)N1N=C(c2ccc(Br)cc2)CC1c1ccc(OCc2ccccc2)cc1 (configuration not stated) . Value?
result: 100

----------
- Tested on: Vesicular stomatitis virus
- Assay Name: Antiviral activity against Vesicular stomatitis virus infected in human HEL cells assessed as inhibition of virus-induced cytopathicity after 3 days
- Assay type: functional, organism-based
- Conditions: 72 h
Value Type: EC50

[[record]]
compound = "NC(=O)c1ncn([C@@H]2O[C@H](CO)[C@@H](O)[C@H]2O)n1"
value_type = "EC50"
recorded_result = "> 250 µg/mL"

[[record]]
compound = "Nc1ccn(C[C@@H](CO)OCP(=O)(O)O)c(=O)n1.O.O"
value_type = "EC50"
recorded_result = "> 250 µg/mL"

[[record]]
compound = "O=C1CSC(N2N=C(c3ccc(Cl)cc3)CC2c2ccc(OCc3ccccc3)cc2)=N1 (centres undefined)"
value_type = "EC50"
recorded_result = "> 20 µg/mL"

[[record]]
compound = "Clc1ccc(-c2csc(N3N=C(c4ccccc4)CC3c3ccc(OCc4ccccc4)cc3)n2)cc1 (centres undefined)"
value_type = "EC50"
recorded_result = "> 20 µg/mL"

[[record]]
compound = "Cc1ccc(-c2csc(N3N=C(c4ccc(Cl)cc4)CC3c3ccc(OCc4ccccc4)cc3)n2)cc1 (centres undefined)"
value_type = "EC50"
recorded_result = "> 20 µg/mL"

[[record]]
compound = "CC(=O)N1N=C(c2ccc(Cl)cc2)CC1c1ccc(OCc2ccccc2)cc1 (centres undefined)"
value_type = "EC50"
recorded_result = "> 20 µg/mL"

[[record]]
compound = "Clc1ccc(-c2csc(N3N=C(c4ccc(Br)cc4)CC3c3ccc(OCc4ccccc4)cc3)n2)cc1 (centres undefined)"
value_type = "EC50"
recorded_result = "> 100 µg/mL"

[[record]]
compound = "NC(=S)N1N=C(c2ccc(Br)cc2)CC1c1ccc(OCc2ccccc2)cc1 (centres undefined)"
value_type = "EC50"
recorded_result = "> 20 µg/mL"


Moving on to the next compound.
query: Endpoint output: EC50 of Cc1ccc(C2=NN(c3nc(-c4ccc(Cl)cc4)cs3)C(c3ccc(OCc4ccccc4)cc3)C2)cc1 (centres undefined) . Value?
result: > 20 µg/mL

----------
- Test system: Coxsackievirus B4
- Assay Name: Antiviral activity against Coxsackievirus B4 infected in human HeLa cells assessed as inhibition of virus-induced cytopathicity after 3 days
- Format: functional, organism-based
- Conditions: Enterovirus B, 72 h
Value Type: EC50

// worked examples, EC50 included
[[record]]
compound = "Cc1ccc(C2=NN(c3nc(-c4ccc(C)cc4)cs3)C(c3ccc(OCc4ccccc4)cc3)C2)cc1 (stereo unspecified)"
recorded_result = "> 100 µg/mL"

[[record]]
compound = "O=C1CSC(N2N=C(c3ccc(Br)cc3)CC2c2ccc(OCc3ccccc3)cc2)=N1 (stereo unspecified)"
recorded_result = "> 100 µg/mL"

[[record]]
compound = "O=C1CSC(N2N=C(c3ccccc3)CC2c2ccc(OCc3ccccc3)cc2)=N1 (stereo unspecified)"
recorded_result = "> 20 µg/mL"

[[record]]
compound = "Cc1ccc(C2=NN(C3=NC(=O)CS3)C(c3ccc(OCc4ccccc4)cc3)C2)cc1 (stereo unspecified)"
recorded_result = "> 20 µg/mL"

[[record]]
compound = "Cc1ccc(C2=NN(c3nc(-c4ccc(Cl)cc4)cs3)C(c3ccc(OCc4ccccc4)cc3)C2)cc1 (stereo unspecified)"
recorded_result = "> 20 µg/mL"


query: Endpoint output: EC50 of NC(=S)N1N=C(c2ccccc2)CC1c1ccc(OCc2ccccc2)cc1 (stereo unspecified) . Value?
result: > 20 µg/mL

----------
Property: EC50; scope: individual compounds
- Tested on: Vesicular stomatitis virus
- Assay Name: Antiviral activity against Vesicular stomatitis virus infected in human HEL cells assessed as inhibition of virus-induced cytopathicity after 3 days
- Format: functional, organism-based
- Conditions: 72 h

query: Value wanted: EC50 (Vesicular stomatitis virus) of entry O=C1CSC(N2N=C(c3ccc(Br)cc3)CC2c2ccc(OCc3ccccc3)cc2)=N1 (stereo not drawn)
result: > 20 µg/mL

query: Value wanted: EC50 (Vesicular stomatitis virus) of entry CC(=O)N1N=C(c2ccc(Br)cc2)CC1c1ccc(OCc2ccccc2)cc1 (stereo not drawn)
result: > 20 µg/mL

query: Value wanted: EC50 (Vesicular stomatitis virus) of entry Cc1ccc(-c2csc(N3N=C(c4ccccc4)CC3c3ccc(OCc4ccccc4)cc3)n2)cc1 (stereo not drawn)
result: > 100 µg/mL

----------
- Assay Name: Cytotoxicity against human HeLa cells assessed as minimum cytotoxic concentration required to cause microscopically detectable alteration in normal cell morphology
- Type: cell-based
Value Type: MCC

[[record]]
molecule = "Nc1ncnc2c1ncn2C[C@H](O)CO [(S)-DHPA]"
value_type = "MCC"
recorded_result = "> 250 µg/mL"

[[record]]
molecule = "Clc1ccc(C2=NN(c3nc(-c4ccc(Cl)cc4)cs3)C(c3ccc(OCc4ccccc4)cc3)C2)cc1 (stereo not drawn)"
value_type = "MCC"
recorded_result = "> 100 µg/mL"

[[record]]
molecule = "NC(=S)N1N=C(c2ccc(Cl)cc2)CC1c1ccc(OCc2ccccc2)cc1 (stereo not drawn)"
value_type = "MCC"
recorded_result = "> 100 µg/mL"


Moving on to the next molecule.
query: Endpoint output: MCC of Cc1ccc(-c2csc(N3N=C(c4ccc(Cl)cc4)CC3c3ccc(OCc4ccccc4)cc3)n2)cc1 (stereo not drawn) . Value?
result: > 100 µg/mL
